target: hTLR7 (Homo sapiens); assay: HEK293-Blue-hTLR-7 cells assay (SEAP reporter, R848 stimulation); type: cell-based; details: HEK293-Blue-hTLR7 cells, R848, 20 hrs; 0.003 is the lowest tested concentration; read-out: HEK/hTLR7 IC50
Parameter: log10(IC50). Scope: all listed entries.
outcome-measure: log10(IC50) (log10 of the value in nM)

| compound | log10(IC50) |
| --- | --- |
| C[C@@H]1CN(c2ccc(C#N)c3ncccc23)C[C@H](CN2Cc3ccc(N4C5CNCC4COC5)cc3C2)O1 | 1.87 |
| C[C@@H]1CN(c2ccc(C#N)c3ncccc23)C[C@H](CN2Cc3ccc(N4CCNC[C@@H]4CO)cc3C2)O1 | 1.67 |
| C[C@@H]1CN(c2ccc(C#N)c3ncccc23)C[C@H](CN2Cc3ccc(N4CCNCC4CO)cc3C2)O1 (stereo partly drawn) | 1.68 |
| C[C@@H]1CN(c2ccc(C#N)n3nccc23)C[C@H](CN2Cc3ccc(C4CCNC4)cc3C2)O1 (stereo partly drawn) | 2.29 |
| C[C@@H]1CN(c2ccc(C#N)c3ncccc23)C[C@H](CN2Cc3ccc(N4CCN[C@@H](C)C4)cc3C2)O1 | 1.60 |
| C[C@@H]1CN(c2ccc(C#N)c3ncccc23)C[C@H](CN2Cc3ccccc3C2)O1 [Example R3, reference compound] | 2.27 |
| C[C@@H]1CN(c2ccc(C#N)c3ncccc23)C[C@H](CN2CCc3cc(N4CCNCC4)ncc3C2)O1 | 1.15 |
| COCCN1CCN(c2ccc3c(c2)CN(C[C@H]2CN(c4ccc(C#N)c5nccnc45)C[C@@H](C)O2)C3)CC1 | 1.70 |
| CCOC(=O)C1CNCCN1c1ccc2c(c1)CN(C[C@H]1CN(c3ccc(C#N)c4ncccc34)C[C@@H](C)O1)C2 (stereo partly drawn) | 1.93 |
| C[C@@H]1CN(c2ccc(C#N)n3nccc23)C[C@H](CN2Cc3ccc(N4CCNCC4)cc3C2)O1 | 1.75 |
| C[C@@H]1CN(c2ccc3c(c2)CN(C[C@H]2CN(c4ccc(C#N)c5ncccc45)C[C@@H](C)O2)C3)CCN1 | 1.41 |
| C[C@@H]1CN(c2ccc(C#N)c3nccnc23)C[C@H](CN2CCc3cc(N4CCNCC4)ccc3C2)O1 | 0.48 |
| C[C@@H]1CN(c2ccc(C#N)c3ncsc23)C[C@H](CN2Cc3ccc(N4CCNCC4)cc3C2)O1 | 0.78 |
| C[C@@H]1CN(c2ccc(C#N)c3nccnc23)C[C@H](CN2Cc3ccc(N4C5CCC4CNC5)cc3C2)O1 | 1.77 |
| C[C@@H]1CN(c2ccc(C#N)c3nccnc23)C[C@H](CN2Cc3cc(N4CCNCC4)cnc3C2)O1 | 1.20 |

----------
Biological target: hTLR7 (Homo sapiens, UniProt Q9NYK1)
Sequence (Q9NYK1 27-1049): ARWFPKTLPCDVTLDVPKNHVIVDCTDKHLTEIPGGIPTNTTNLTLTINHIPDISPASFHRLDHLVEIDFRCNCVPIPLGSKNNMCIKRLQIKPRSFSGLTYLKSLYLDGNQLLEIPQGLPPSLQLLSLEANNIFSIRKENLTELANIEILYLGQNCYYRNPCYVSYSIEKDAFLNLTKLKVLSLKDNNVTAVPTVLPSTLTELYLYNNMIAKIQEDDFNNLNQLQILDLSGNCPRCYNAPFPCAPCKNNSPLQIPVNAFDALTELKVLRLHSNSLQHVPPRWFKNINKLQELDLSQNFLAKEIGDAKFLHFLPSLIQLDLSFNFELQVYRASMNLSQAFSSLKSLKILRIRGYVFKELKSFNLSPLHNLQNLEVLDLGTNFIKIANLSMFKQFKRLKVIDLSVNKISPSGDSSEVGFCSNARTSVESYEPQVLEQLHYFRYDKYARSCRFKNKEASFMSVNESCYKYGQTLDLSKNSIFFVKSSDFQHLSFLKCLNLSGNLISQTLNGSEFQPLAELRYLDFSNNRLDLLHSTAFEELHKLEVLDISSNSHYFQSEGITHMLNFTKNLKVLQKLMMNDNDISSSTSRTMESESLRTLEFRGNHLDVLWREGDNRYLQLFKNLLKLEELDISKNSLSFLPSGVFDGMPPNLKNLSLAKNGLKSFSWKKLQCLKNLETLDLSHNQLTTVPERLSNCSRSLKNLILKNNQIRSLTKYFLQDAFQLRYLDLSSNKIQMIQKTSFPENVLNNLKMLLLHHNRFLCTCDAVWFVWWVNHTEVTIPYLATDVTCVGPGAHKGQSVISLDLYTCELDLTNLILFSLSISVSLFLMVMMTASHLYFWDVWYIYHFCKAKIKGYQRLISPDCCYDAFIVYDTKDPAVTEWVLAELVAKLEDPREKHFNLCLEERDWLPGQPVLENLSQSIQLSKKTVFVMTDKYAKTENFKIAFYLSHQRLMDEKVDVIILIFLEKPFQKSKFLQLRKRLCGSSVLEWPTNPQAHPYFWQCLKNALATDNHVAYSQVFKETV
Assay: HEK293-Blue-hTLR-7 cells assay (SEAP reporter, R848 stimulation)
Format: cell-based
Details: HEK293-Blue-hTLR7 cells, R848, 20 hrs; 0.003 is the lowest tested concentration; read-out: HEK/hTLR7 IC50
pIC50: −log10 of the molar value.

| compound | pIC50 |
| --- | --- |
| C[C@@H]1CN(c2ccc(C#N)n3nccc23)C[C@H](CNCc2ccc(N3CCNCC3)cc2)O1 | 6.98 |
| C[C@@H]1CN(c2ccc(C#N)c3nccnc23)C[C@H](CN2Cc3ccc(N4CCNC5(CC5)C4)cc3C2)O1 | 7.64 |
| C[C@@H]1CN(c2ccc(C#N)c3ncccc23)C[C@H](CN2Cc3ccc(N4CCNCC4)nc3C2)O1 | 8.15 |
| C[C@@H]1CN(c2ccc(C#N)n3nccc23)C[C@H](CN2Cc3ccncc3C2)O1 [Example R2, reference compound] | 6.14 |
